Measured values drawn from paper PMC9760430 for this set.

biological target: T1, recombinant murine αvβ8 integrin (murine, UniProt P43406 31-1044; Q0VBD0 22-681); assay: direct integrin binding assay (near-infrared fluorescence scan of plates); microtiter plates coated with αvβ6 or αvβ8; peptide-IRDye conjugates incubated 1 h, washed, bound fluorescence read with Odyssey CLx; EC50; settings: both partners purified
T1 construct: integrin αv subunit, mouse; integrin β8 subunit, mouse; details of reagents are in the Supplemental Materials; source: bought: Bio-Techne
T1 sequence (P43406 whole entry, chain 1 of 2): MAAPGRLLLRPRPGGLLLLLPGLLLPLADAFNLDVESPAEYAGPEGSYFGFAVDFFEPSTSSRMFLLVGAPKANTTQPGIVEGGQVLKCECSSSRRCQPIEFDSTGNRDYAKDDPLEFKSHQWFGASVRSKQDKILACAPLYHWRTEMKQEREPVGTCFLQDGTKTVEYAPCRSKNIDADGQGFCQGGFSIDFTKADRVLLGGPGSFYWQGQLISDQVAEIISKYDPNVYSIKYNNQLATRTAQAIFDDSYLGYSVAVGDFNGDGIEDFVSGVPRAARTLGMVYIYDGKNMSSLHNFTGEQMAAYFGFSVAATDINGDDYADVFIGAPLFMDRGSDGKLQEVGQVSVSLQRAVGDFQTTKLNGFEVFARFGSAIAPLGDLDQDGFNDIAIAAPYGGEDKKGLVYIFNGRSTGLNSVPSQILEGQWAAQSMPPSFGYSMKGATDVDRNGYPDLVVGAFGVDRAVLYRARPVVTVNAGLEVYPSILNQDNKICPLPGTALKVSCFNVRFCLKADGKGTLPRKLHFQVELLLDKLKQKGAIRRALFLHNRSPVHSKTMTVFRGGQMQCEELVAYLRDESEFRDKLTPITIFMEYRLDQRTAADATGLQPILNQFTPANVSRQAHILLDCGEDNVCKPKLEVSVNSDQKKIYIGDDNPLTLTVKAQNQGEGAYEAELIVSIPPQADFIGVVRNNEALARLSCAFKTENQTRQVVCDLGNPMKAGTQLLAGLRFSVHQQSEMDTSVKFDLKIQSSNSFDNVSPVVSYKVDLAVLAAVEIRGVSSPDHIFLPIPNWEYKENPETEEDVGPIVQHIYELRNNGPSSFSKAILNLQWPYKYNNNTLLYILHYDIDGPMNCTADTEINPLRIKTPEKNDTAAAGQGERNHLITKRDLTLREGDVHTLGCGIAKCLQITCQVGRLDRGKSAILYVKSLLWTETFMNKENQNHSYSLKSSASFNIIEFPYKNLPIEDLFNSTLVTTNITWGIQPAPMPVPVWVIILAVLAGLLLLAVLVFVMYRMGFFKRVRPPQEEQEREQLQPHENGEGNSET
T1 sequence (Q0VBD0 whole entry, chain 2 of 2): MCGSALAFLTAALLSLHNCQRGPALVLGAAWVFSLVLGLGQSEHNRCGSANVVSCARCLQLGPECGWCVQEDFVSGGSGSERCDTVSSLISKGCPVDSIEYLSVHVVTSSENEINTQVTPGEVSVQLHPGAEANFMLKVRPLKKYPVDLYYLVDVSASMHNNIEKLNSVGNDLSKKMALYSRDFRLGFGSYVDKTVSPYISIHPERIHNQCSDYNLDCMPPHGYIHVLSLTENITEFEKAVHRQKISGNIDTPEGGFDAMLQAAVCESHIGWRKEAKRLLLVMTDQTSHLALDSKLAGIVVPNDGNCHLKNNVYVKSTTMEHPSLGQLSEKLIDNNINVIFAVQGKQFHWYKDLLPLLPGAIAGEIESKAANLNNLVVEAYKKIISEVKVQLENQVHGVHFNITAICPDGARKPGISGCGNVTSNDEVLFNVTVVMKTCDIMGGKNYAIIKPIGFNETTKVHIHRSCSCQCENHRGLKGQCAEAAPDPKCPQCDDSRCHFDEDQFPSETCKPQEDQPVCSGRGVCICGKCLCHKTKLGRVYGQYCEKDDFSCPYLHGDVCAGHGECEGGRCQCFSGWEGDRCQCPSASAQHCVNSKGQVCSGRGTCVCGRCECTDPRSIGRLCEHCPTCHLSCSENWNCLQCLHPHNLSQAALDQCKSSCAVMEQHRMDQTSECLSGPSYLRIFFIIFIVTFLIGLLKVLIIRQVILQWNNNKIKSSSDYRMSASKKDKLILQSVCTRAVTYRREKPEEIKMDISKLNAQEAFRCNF
Bridge positions count the residues as written; N and C are the ends. Square brackets hold non-standard residues; d marks the D form. Ends that are not written are not given here. Lys(N3) = [N-]=[N+]=NCCCC[C@H](N)C(=O)O; Pra = C#CC[C@H](N)C(=O)O
Attribute Measured: EC50
Form field: result (number plus unit)

Please look up its EC50: C(maleimide‑IRDye 800CW)FETLRGDLRILSILR[Pra]QNL[Lys(N3)]KELQD-NH2 (triazole 17-21) [5a-IRDye conjugate]
0.65 nM
